Reference source: ChEMBL document CHEMBL3885861

species: Rattus norvegicus; assay: Open TG-GATES - Regimen: Single; format: toxicity, organism-based, Sprague-Dawley; parameters: regimen Single, gender Male, age 6 weeks; details: in vivo, po, 100 mg/kg, 24 h, tissue Plasma, route gavage, dose level Low
endpoint-name: ALT (IU/L)
Quick reminder: number only, in IU/L, skip the unit.

Problem: What value of measured ALT is listed for CN/C(=N/CCSCc1nc[nH]c1C)NC#N ?
Result: 35.2

Problem: What about this compound? Cc1nnc2n1-c1ccc(Cl)cc1C(c1ccccc1Cl)=NC2
Result: 41.6

Problem: What about this compound? O=C(OC[C@H]1O[C@@H](OC(=O)c2cc(O)c(O)c(OC(=O)c3cc(O)c(O)c(O)c3)c2)[C@H](OC(=O)c2cc(O)c(O)c(OC(=O)c3cc(O)c(O)c(O)c3)c2)[C@@H](OC(=O)c2cc(O)c(O)c(OC(=O)c3cc(O)c(O)c(O)c3)c2)[C@@H]1OC(=O)c1cc(O)c(O)c(OC(=O)c2cc(O)c(O)c(O)c2)c1)c1cc(O)c(O)c(OC(=O)c2cc(O)c(O)c(O)c2)c1
Result: 41.2
